Would you kindly list viability, T/C for each of these molecules?
# Tested on: 945468-187-T-J3-PDC spheroids with HUVEC/MSC, viability
# test.name: Anticancer human tumor 945468-187-T-J3-PDC patient-derived rectal carcinoma cell line growth inhibition [PI3K]
# measurement.parameters: second compound 0.01 µM; first compound 0.1 µM; hits give low values
Answers are plain numbers, in %.

Use these answered entries as a reference point.
[[record]]
molecule = "CC1(C)CCC(Nc2ncc(C(F)(F)F)c(-c3c[nH]c4c(P(C)(C)=O)c(C#N)ccc34)n2)CN1 (stereo not drawn) + COc1c(OCCCN2CCOCC2)ccc2c3n(c(=NC(=O)c4cnc(N)nc4)nc12)CCN3"
readout_unit = "%"
assay_value = 48.1

[[record]]
molecule = "Cn1nccc1Nc1nccc(-c2ccn(C(CO)c3ccc(Cl)c(F)c3)c(=O)c2)n1 (stereo not drawn) + CC(Nc1ccc2c(c1)OCCn1cc(N3C(=O)OCC3C(F)F)nc1-2)C(N)=O"
readout_unit = "%"
assay_value = 101


Now turn to the next molecule.
Any idea what its viability, T/C is? The molecule is C#Cc1c(F)ccc2cc(O)cc(-c3ncc4c(N5CC6CCC(C5)N6)nc(OCC56CCCN5CC(F)C6)nc4c3F)c12 (stereo not drawn) + COc1c(OCCCN2CCOCC2)ccc2c3n(c(=NC(=O)c4cnc(N)nc4)nc12)CCN3
97.2

---

# System: 945468-187-T-J3-PDC spheroids with HUVEC/MSC, viability
# test.name: Anticancer human tumor 945468-187-T-J3-PDC cell line growth inhibition [PI3K];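 also: spheroids exposed to agents for 7 days before viability read; 100% = DMSO vehicle control viability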
# measurement.parameters: second compound 0.316 µM; first compound 0.01 µM; hits give low values
Doc: threshold 20% (exclusive). Items with viability, T/C beneath it return True; others return False.

Observe how each entry below is paired with its result.
[[record]]
compound = "CC(=O)c1c(C)c2cnc(Nc3ccc(N4CCNCC4)cn3)nc2n(C2CCCC2)c1=O + CC(Nc1ccc2c(c1)OCCn1cc(N3C(=O)OCC3C(F)F)nc1-2)C(N)=O"
group = "False"

[[record]]
compound = "CCN1CCN(Cc2ccc(Nc3ncc(F)c(-c4cc(F)c5nc(C)n(C(C)C)c5c4)n3)nc2)CC1 + CC(Nc1ncnc2nc[nH]c12)c1cc2cccc(Cl)c2c(=O)n1-c1ccccc1"
group = "False"

[[record]]
compound = "CC(=O)c1c(C)c2cnc(Nc3ccc(N4CCNCC4)cn3)nc2n(C2CCCC2)c1=O + COc1c(OCCCN2CCOCC2)ccc2c3n(c(=NC(=O)c4cnc(N)nc4)nc12)CCN3"
group = "True"


For this compound, is viability, T/C lower than 20%? CCN1CCN(Cc2ccc(Nc3ncc(F)c(-c4cc(F)c5nc(C)n(C(C)C)c5c4)n3)nc2)CC1 + Cc1nc(NC(=O)N2CCCC2C(N)=O)sc1-c1ccnc(C(C)(C)C(F)(F)F)c1
False

Problem: For the compound Cn1ncnc1[C@H]1c2n[nH]c(=O)c3cc(F)cc(c23)N[C@@H]1c1ccc(F)cc1 + COc1c(OCCCN2CCOCC2)ccc2c3n(c(=NC(=O)c4cnc(N)nc4)nc12)CCN3 , is viability, T/C under 20%?
False

---

# Test system: 945468-187-T-J3-PDC spheroids with HUVEC/MSC, viability
# test.name: Anticancer human tumor 945468-187-T-J3-PDC cell line growth inhibition [PI3K];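 also: spheroids exposed to agents for 7 days before viability read; 100% = DMSO vehicle control viability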
# measurement.parameters: second compound 3.16 µM; first compound 0.0316 µM; hits give low values
Please provide measured viability, T/C for the entries that follow.
Answers are plain numbers, in %.

Illustrative cases are given below, each with its answer.
[[record]]
compound = "C[C@@H](NC(=O)c1ncnc(N)c1Cl)c1ncc(C(=O)Nc2cc(C(F)(F)F)c(Cl)cn2)s1 + CC(Nc1ncnc2nc[nH]c12)c1cc2cccc(Cl)c2c(=O)n1-c1ccccc1"
test_target = "945468-187-T-J3-PDC spheroids with HUVEC/MSC, viability"
quantity = "viability, T/C"
assay_value = 104

[[record]]
compound = "CC(C)n1nc(-c2ccc3oc(N)nc3c2)c2c(N)ncnc21 + Cc1nc(NC(=O)N2CCCC2C(N)=O)sc1-c1ccnc(C(C)(C)C(F)(F)F)c1"
test_target = "945468-187-T-J3-PDC spheroids with HUVEC/MSC, viability"
quantity = "viability, T/C"
assay_value = 49.9

[[record]]
compound = "CC(=O)c1c(C)c2cnc(Nc3ccc(N4CCNCC4)cn3)nc2n(C2CCCC2)c1=O + CC(Nc1ncnc2nc[nH]c12)c1cc2cccc(Cl)c2c(=O)n1-c1ccccc1"
test_target = "945468-187-T-J3-PDC spheroids with HUVEC/MSC, viability"
quantity = "viability, T/C"
assay_value = 105

[[record]]
compound = "Cn1ncnc1[C@H]1c2n[nH]c(=O)c3cc(F)cc(c23)N[C@@H]1c1ccc(F)cc1 + Cc1nc(NC(=O)N2CCCC2C(N)=O)sc1-c1ccnc(C(C)(C)C(F)(F)F)c1"
test_target = "945468-187-T-J3-PDC spheroids with HUVEC/MSC, viability"
quantity = "viability, T/C"
assay_value = 107

[[record]]
compound = "Cn1ncnc1[C@H]1c2n[nH]c(=O)c3cc(F)cc(c23)N[C@@H]1c1ccc(F)cc1 + CC(Nc1ncnc2nc[nH]c12)c1cc2cccc(Cl)c2c(=O)n1-c1ccccc1"
test_target = "945468-187-T-J3-PDC spheroids with HUVEC/MSC, viability"
quantity = "viability, T/C"
assay_value = 102


Turning to the following compound.
GET /values?readout=viability, T/C&item= CC(C)NCC(C(=O)N1CCN(c2ncnc3c2C(C)CC3O)CC1)c1ccc(Cl)cc1 (stereo unspecified) + Cc1nc(NC(=O)N2CCCC2C(N)=O)sc1-c1ccnc(C(C)(C)C(F)(F)F)c1
92.6

---

# Tested on: 945468-187-T-J3-PDC spheroids with HUVEC/MSC, viability
# test.name: Anticancer human tumor 945468-187-T-J3-PDC cell line growth inhibition [PI3K];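 also: spheroids exposed to agents for 7 days before viability read; 100% = DMSO vehicle control viability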
# measurement.parameters: second compound 0.01 µM; first compound 0.000316 µM; hits give low values
Consider the following molecules; for each one, report its viability, T/C.

Here is how some molecules turned out for viability, T/C.
[[record]]
molecule = "CC(=O)c1c(C)c2cnc(Nc3ccc(N4CCNCC4)cn3)nc2n(C2CCCC2)c1=O + COc1c(OCCCN2CCOCC2)ccc2c3n(c(=NC(=O)c4cnc(N)nc4)nc12)CCN3"
quantity = "viability, T/C"
assay_value = "92.4%"

[[record]]
molecule = "CC(C)n1nc(-c2ccc3oc(N)nc3c2)c2c(N)ncnc21 + COc1c(OCCCN2CCOCC2)ccc2c3n(c(=NC(=O)c4cnc(N)nc4)nc12)CCN3"
quantity = "viability, T/C"
assay_value = "97.2%"

[[record]]
molecule = "Cn1ncnc1[C@H]1c2n[nH]c(=O)c3cc(F)cc(c23)N[C@@H]1c1ccc(F)cc1 + COc1c(OCCCN2CCOCC2)ccc2c3n(c(=NC(=O)c4cnc(N)nc4)nc12)CCN3"
quantity = "viability, T/C"
assay_value = "99.3%"

[[record]]
molecule = "CC(C)n1nc(-c2ccc3oc(N)nc3c2)c2c(N)ncnc21 + CC(Nc1ccc2c(c1)OCCn1cc(N3C(=O)OCC3C(F)F)nc1-2)C(N)=O"
quantity = "viability, T/C"
assay_value = "102%"


Now for the molecule whose viability, T/C we want.
What is its viability, T/C for 945468-187-T-J3-PDC spheroids with HUVEC/MSC, viability? Entry: CC(=O)c1c(C)c2cnc(Nc3ccc(N4CCNCC4)cn3)nc2n(C2CCCC2)c1=O + CC(Nc1ccc2c(c1)OCCn1cc(N3C(=O)OCC3C(F)F)nc1-2)C(N)=O
97.6%

---

# System: 945468-187-T-J3-PDC spheroids with HUVEC/MSC, viability
# test.name: Anticancer human tumor 945468-187-T-J3-PDC cell line growth inhibition [PI3K];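 also: spheroids exposed to agents for 7 days before viability read; 100% = DMSO vehicle control viability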
# measurement.parameters: second compound 0.0316 µM; first compound 1 µM; hits give low values
quantity: viability, T/C

[[record]]
molecule = "C=CC(=O)N1CCN(c2nc(=O)n(-c3c(C)ccnc3C(C)C)c3nc(-c4c(O)cccc4F)c(F)cc23)C(C)C1 (stereo unspecified) + Cc1nc(NC(=O)N2CCCC2C(N)=O)sc1-c1ccnc(C(C)(C)C(F)(F)F)c1"
assay_value = "108%"


Return reported viability, T/C values for all items listed beneath this line.
1. CC(Cn1ccc(-c2ccc(C#N)c(Cl)c2)n1)NC(=O)c1cc(C(C)O)[nH]n1 (stereo unspecified) + CC(Nc1ccc2c(c1)OCCn1cc(N3C(=O)OCC3C(F)F)nc1-2)C(N)=O
2. C=CC(=O)N1CCN(c2nc(=O)n(-c3c(C)ccnc3C(C)C)c3nc(-c4c(O)cccc4F)c(F)cc23)C(C)C1 (stereo unspecified) + COc1c(OCCCN2CCOCC2)ccc2c3n(c(=NC(=O)c4cnc(N)nc4)nc12)CCN3
3. CCCS(=O)(=O)Nc1ccc(F)c(C(=O)c2c[nH]c3ncc(-c4ccc(Cl)cc4)cc23)c1F + Cc1nc(NC(=O)N2CCCC2C(N)=O)sc1-c1ccnc(C(C)(C)C(F)(F)F)c1
4. CNC(=O)c1ccc(N2C(=S)N(c3ccc(C#N)c(C(F)(F)F)c3)C(=O)C2(C)C)cc1F + Cc1nc(NC(=O)N2CCCC2C(N)=O)sc1-c1ccnc(C(C)(C)C(F)(F)F)c1
5. CC1(C)CCC(Nc2ncc(C(F)(F)F)c(-c3c[nH]c4c(P(C)(C)=O)c(C#N)ccc34)n2)CN1 (stereo unspecified) + COc1c(OCCCN2CCOCC2)ccc2c3n(c(=NC(=O)c4cnc(N)nc4)nc12)CCN3

1. 111%
2. 88.2%
3. 103%
4. 115%
5. 48.1%

List reported viability, T/C for each of these molecules:
1. CNC(=O)c1ccc(N2C(=S)N(c3ccc(C#N)c(C(F)(F)F)c3)C(=O)C2(C)C)cc1F + COc1c(OCCCN2CCOCC2)ccc2c3n(c(=NC(=O)c4cnc(N)nc4)nc12)CCN3
2. Cn1ncc(Cl)c1-c1cc(C(=O)NC(CN)Cc2cccc(F)c2)sc1Cl (stereo unspecified) + COc1c(OCCCN2CCOCC2)ccc2c3n(c(=NC(=O)c4cnc(N)nc4)nc12)CCN3
3. C[C@@H](NC(=O)c1ncnc(N)c1Cl)c1ncc(C(=O)Nc2cc(C(F)(F)F)c(Cl)cn2)s1 + Cc1nc(NC(=O)N2CCCC2C(N)=O)sc1-c1ccnc(C(C)(C)C(F)(F)F)c1
4. CCCS(=O)(=O)Nc1ccc(F)c(C(=O)c2c[nH]c3ncc(-c4ccc(Cl)cc4)cc23)c1F + COc1c(OCCCN2CCOCC2)ccc2c3n(c(=NC(=O)c4cnc(N)nc4)nc12)CCN3
5. CCCS(=O)(=O)Nc1ccc(F)c(C(=O)c2c[nH]c3ncc(-c4ccc(Cl)cc4)cc23)c1F + CC(Nc1ncnc2nc[nH]c12)c1cc2cccc(Cl)c2c(=O)n1-c1ccccc1

["104%", "29.1%", "111%", "89.6%", "101%"]
